We begin with a simple list: items and their reported growth inhibition.
experiment.description: NCI Yeast Anticancer Drug Screen. Data for the mec2-1 strain (AID 157)
assay.conditions: S. cerevisiae mec2-1 strain, at 50.0 µM, hits give high values
Compounds without any hit were thinned out: in the full panel of roughly 79,000, 15% have a hit.
property.label: growth inhibition (%)

molecule	property.label	unit.abbreviation	number
O=C(NO)C(=O)NO	growth inhibition	%	-2.95
COc1ccc(CCN2CCc3c(C)c(C#N)c4nc5ccccc5n4c32)cc1OC	growth inhibition	%	26
CC(O)C1CC1 (stereo not drawn)	growth inhibition	%	-40.8

###

experiment.description: NCI Yeast Anticancer Drug Screen. Data for the mlh1 rad18 strain (AID 175)
assay.conditions: S. cerevisiae mlh1 rad18 strain growth inhibition; at 50.0 µM
Compounds without any hit were thinned out: in the full panel of roughly 79,000, 15% have a hit. Activity calls are given as the source filed them. Cut-off read from the data, not from the text of the source: active = growth inhibition above about 70%; inactive = the rest.
Outcome codes: true (active), false (inactive)

structure.smiles.string	cat
Cc1cc(O)c(/C=N/c2nc(-c3ccc([N+](=O)[O-])cc3)cs2)c(=O)o1	true
O=S(=O)(CS(=O)(=O)c1ccc(Br)cc1)c1ccc(Br)cc1	false
CC(C)OP(=O)(OC(C)C)c1ccc2c(c1)OCCOCCOCCOCCO2	false

###

experiment.description: NCI Yeast Anticancer Drug Screen. Data for the cln2 rad14 strain (AID 165);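 note: 0% = growth equal to vehicle treated cultures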
assay.conditions: S. cerevisiae cln2 rad14 strain, at 50.0 µM
Description: Growth inhibition of yeast strains with defined genetic alterations is measured as a screen for potential anti-cancer activity. Selected strains with alterations in DNA damage repair or cell cycle control were exposed to compounds and growth inhibition was measured relative to vehicle treated controls. The strain used in this assay is cln2 rad14
About 79,000 compounds went through this panel and 15% of them were active in at least one assay; those are over-represented in the sample as a whole. Calls of active or inactive are those of the source. Cut-off read from the data, not from the text of the source: active = growth inhibition above about 70%; inactive = the rest.
Outcome codes: 1 = active, 0 = inactive

compound	cat
O=[N+]([O-])c1nccn1CC(O)CN1CCCCC1 (centres undefined)	0
COC(=O)C(Cc1ccccc1)NC(=O)Cn1ccnc1[N+](=O)[O-] (centres undefined)	0
CC(=O)OCC1OC(n2ncnc2CI)C(OC(C)=O)C(OC(C)=O)C1OC(C)=O (centres undefined)	0
CC1(C)OS(=O)(=O)C=C1Br	0
Nc1nc(N)c(-c2ccc(Cl)cc2)c(CNc2cccc([N+](=O)[O-])c2)n1	1
CC1=C/C(=N\O)C(C(O)(C(F)(F)F)C(F)(F)F)C(C)(C)C1 (centres undefined)	0
O=[N+]([O-])c1nccn1CCCN=c1c2ccccc2n(O)c2ccccc12	0
CCOC(=O)/C(=C\c1ccc(OCc2ccccc2)c(OC)c1)C(=O)c1ccccc1	0
CC(=O)OC(Cn1cncn1)(Cn1cncn1)c1ccc(Cl)cc1Cl	0

###

experiment.description: NCI Yeast Anticancer Drug Screen. Data for the mec2-1 strain (AID 157)
assay.conditions: S. cerevisiae mec2-1 strain, at 50.0 µM, hits give high values
About 79,000 compounds went through this panel and 15% of them were active in at least one assay; those are over-represented in the sample as a whole. The source made the active and inactive calls. Cut-off read from the data, not from the text of the source: active = growth inhibition above about 70%; inactive = the rest.
property.label: growth inhibition

molecule	result
NC(=O)c1nc(C2OC(CO)C(O)C2O)cs1 (stereo not drawn)	-1.2% (inactive)
CCCOC(=O)OCCC	-37.3% (inactive)
CC(=O)OC(C)(C)c1ccc2c(c1)C(=O)C[C@@H]1[C@](C)(C#N)CCC[C@]21C	0.3% (inactive)
